Source of measurements: patent US12077503B2

# Tested on: pigweed (Amaranthus retroflexus)
# assayInfo: Test A postemergence
# Type: in vivo
# studyConditions: 500 g ai/ha, postemergence; visual injury, 0 to 100 scale (0 no effect, 100 complete control), approx. 10 d
reportedMetric: Plant response rating, Pigweed
Note: the reply should be a number with no unit written.

Give a short answer stating reported Plant response rating, Pigweed for CN1CC(c2cccc(C(F)(F)F)c2)C(C(=O)Nc2cccc(F)c2F)C1=O (stereo not shown) [Compound 636] .
50

Give a short answer stating reported Plant response rating, Pigweed for O=C1NCC(c2cccc(O)c2)C1C(=O)Nc1ccccc1F (racemic) [Compound 714] .
0

Give a short answer stating reported Plant response rating, Pigweed for CC(C)Oc1cccc(C2CN(C)C(=O)C2C(=O)Nc2ccccc2F)c1 (stereo not shown) [Compound 650] .
0

Give a short answer stating reported Plant response rating, Pigweed for O=C1NCC(c2cccc(OC(F)(F)C(F)F)c2)C1C(=O)Nc1ccccc1Cl (racemic) [Compound 699] .
20
